Numbers sourced from patent US10189854B2.

Biological target: human PDE4B1 (Homo sapiens (Human), UniProt Q07343)
Sequence (Q07343 whole entry): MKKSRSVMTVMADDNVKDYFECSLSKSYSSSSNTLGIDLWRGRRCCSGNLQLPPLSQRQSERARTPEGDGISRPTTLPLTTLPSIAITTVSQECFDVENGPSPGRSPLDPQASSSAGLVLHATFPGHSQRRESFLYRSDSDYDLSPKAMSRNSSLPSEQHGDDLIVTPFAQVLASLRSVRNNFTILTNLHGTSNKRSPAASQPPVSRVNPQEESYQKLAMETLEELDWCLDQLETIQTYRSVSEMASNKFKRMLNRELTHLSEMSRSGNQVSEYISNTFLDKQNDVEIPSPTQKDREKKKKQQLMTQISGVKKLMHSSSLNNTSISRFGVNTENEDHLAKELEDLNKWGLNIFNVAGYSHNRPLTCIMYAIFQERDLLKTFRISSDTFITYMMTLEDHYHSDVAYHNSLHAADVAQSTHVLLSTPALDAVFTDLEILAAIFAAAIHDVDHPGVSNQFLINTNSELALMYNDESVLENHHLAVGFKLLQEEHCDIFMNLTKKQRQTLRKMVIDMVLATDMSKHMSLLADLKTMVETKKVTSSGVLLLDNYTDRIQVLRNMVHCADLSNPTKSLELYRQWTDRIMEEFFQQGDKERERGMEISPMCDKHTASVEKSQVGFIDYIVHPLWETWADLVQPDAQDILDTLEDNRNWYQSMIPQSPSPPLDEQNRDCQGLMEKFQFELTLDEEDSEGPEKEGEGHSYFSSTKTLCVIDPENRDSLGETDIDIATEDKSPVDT
Test: cAMP HTRF assay to determine the activity of hPDE4B1
Format: biochemical
Details: IC50 inhibition of PDE4B; human recombinant PDE4B1, cAMP HTRF assay

# COMPOUND, IC50
rows = [
    ("O=C(c1ccc2c(c1)N(c1ncc(-c3ccccc3F)cn1)CC21CC1)N1CC(O)C1", "0.1 to 1 µM"),
    ("O=C(c1ccc2c(c1)N(c1ncc(-c3ccccc3F)cn1)CC21CC1)N1CCC2(CNC2)C1", "1 to 10 µM"),
    ("Cn1cccc1-c1cnc(N2CC3(CC3)c3ccc(C(=O)N4CCOCC4)cc32)nc1", "< 0.1 µM"),
    ("O=C(c1ccc2c(c1)N(c1ncc(-c3ccccc3F)cn1)CC21CC1)N1CCOCC1", "< 0.1 µM"),
    ("CN1CCN(C(=O)c2ccc3c(c2)N(c2ncc(-c4ccccc4F)cn2)CC32CC2)CC1", "< 0.1 µM"),
    ("O=C(c1ccc2c(c1)N(c1ncc(-c3ccccc3F)cn1)CC21CC1)N1CC2CC1CN2CCO (stereo not shown)", "0.1 to 1 µM"),
    ("N#Cc1ccc(-c2cnc(N3CC4(CC4)c4ccc(C(=O)N5CCOCC5)cc43)nc2)c(F)c1", "0.1 to 1 µM"),
    ("O=C(c1ccc2c(c1)N(c1ncc(-c3cccc(F)n3)cn1)CC21CC1)N1CCOCC1", "< 0.1 µM"),
    ("Cn1ccc(-c2cnc(N3CC4(CC4)c4ccc(C(=O)N5CCOCC5)cc43)nc2)n1", "< 0.1 µM"),
    ("CC1COCC(C)N1C(=O)c1ccc2c(c1)N(c1ncc(-c3ccccc3F)cn1)CC21CC1 (stereo not shown)", "0.1 to 1 µM"),
    ("O=C1CN(C(=O)c2ccc3c(c2)N(c2ncc(-c4ccccc4F)cn2)CC32CC2)CCN1", "< 0.1 µM"),
    ("O=C(c1ccc2c(c1)N(c1ncc(-c3ccc(CO)s3)cn1)CC21CC1)N1CCOCC1", "< 0.1 µM"),
    ("O=C(c1ccc2c(c1)N(c1ncc(-c3ccncc3F)cn1)CC21CC1)N1CCOCC1", "< 0.1 µM"),
    ("CN(C)C(=O)c1ccc2c(c1)N(c1ncc(-c3cccnc3F)cn1)CC21CC1", "< 0.1 µM"),
    ("CN(C)c1ccnc(-c2cnc(N3CC4(CC4)c4ccc(C(=O)N5CCOCC5)cc43)nc2)c1", "< 0.1 µM"),
    ("O=C(c1ccc2c(c1)N(c1ncc(-c3cccnc3F)cn1)CC21CC1)N1CCOCC1", "< 0.1 µM"),
    ("O=C(c1ccc2c(c1)N(c1ncc(-c3ccccc3F)cn1)CC21CC1)N1CC[C@@H](O)C1", "< 0.1 µM"),
    ("CN1CCN(C(=O)c2ccc3c(c2)N(c2ncc(-c4ccccc4F)cn2)CC32CC2)CC1=O", "< 0.1 µM"),
    ("O=C1CN(C(=O)c2ccc3c(c2)N(c2ncc(-c4ccccn4)cn2)CC32CC2)CCN1", "< 0.1 µM"),
    ("CN(CCN)C(=O)c1ccc2c(c1)N(c1ncc(-c3ccccc3F)cn1)CC21CC1", "< 0.1 µM"),
    ("NC(=O)c1ccnc(-c2cnc(N3CC4(CC4)c4ccc(C(=O)N5CCOCC5)cc43)nc2)c1", "< 0.1 µM"),
    ("CN(C)[C@@H]1CCN(C(=O)c2ccc3c(c2)N(c2ncc(-c4ccccc4F)cn2)CC32CC2)C1 [Compound 77]", "0.1 to 1 µM"),
    ("COc1cccc(-c2cnc(N3CC4(CC4)c4ccc(C(=O)N5CC6CC5CN6)cc43)nc2)c1 (stereo not shown)", "< 0.1 µM"),
    ("O=C(c1ccc2c(c1)N(c1ncc(-c3ccccc3F)cn1)CC21CC1)N1CCC(CO)CC1", "0.1 to 1 µM"),
    ("N#Cc1ccc(F)c(-c2cnc(N3CC4(CC4)c4ccc(C(=O)N5CC[C@@H](N)C5)cc43)nc2)c1", "< 0.1 µM"),
    ("O=C(c1ccc2c(c1)N(c1ncc(-c3ccccc3F)cn1)CC21CC1)N1CCN(CCO)CC1", "< 0.1 µM"),
    ("N#Cc1ccc(F)c(-c2cnc(N3CC4(CC4)c4ccc(C(=O)N5CCNCC5)cc43)nc2)c1", "< 0.1 µM"),
    ("CN(C(=O)c1ccc2c(c1)N(c1ncc(-c3ccccc3F)cn1)CC21CC1)C1CCOCC1", "0.1 to 1 µM"),
    ("CN(CCO)C(=O)c1ccc2c(c1)N(c1ncc(-c3cc(F)cc(F)c3)cn1)CC21CC1", "< 0.1 µM"),
    ("N[C@@H]1CCN(C(=O)c2ccc3c(c2)N(c2ncc(-c4ccccc4F)cn2)CC32CC2)C1", "< 0.1 µM"),
    ("O=C(c1ccc2c(c1)N(c1ncc(-c3ccc(F)cc3F)cn1)CC21CC1)N1CCNCC1", "0.1 to 1 µM"),
]
